Entries below carry reported IC50 on UniProt:P09616.
Sequence (P09616 27-319 limits assumed): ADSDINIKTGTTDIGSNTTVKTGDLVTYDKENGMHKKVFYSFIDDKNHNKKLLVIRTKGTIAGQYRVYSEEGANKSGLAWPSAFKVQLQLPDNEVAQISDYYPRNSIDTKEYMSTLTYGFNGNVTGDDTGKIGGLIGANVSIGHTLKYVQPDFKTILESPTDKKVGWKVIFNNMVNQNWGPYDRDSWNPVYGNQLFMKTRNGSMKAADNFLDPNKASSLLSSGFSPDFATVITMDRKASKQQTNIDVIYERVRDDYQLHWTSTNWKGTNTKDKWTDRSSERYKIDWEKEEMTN
readout-type: IC50

> print(dat)
                                 smiles.repr  target.under.test  readout.type         observed
 1  Cc1cc2[nH]c(=O)c(=O)[nH]c2cc1S(=O)(=O)Nc1ccc(N(C)C)cc1     UniProt:P09616          IC50   100 to 1000 nM
 2  CC(=O)c1ccccc1-c1ccc(NS(=O)(=O)c2cc3[nH]c(=O)c(=O)[nH]c3cc2C)cc1     UniProt:P09616          IC50   100 to 1000 nM
 3  O=c1[nH]c2cc(F)c(S(=O)(=O)Nc3ccc(-c4ccc5c(c4)NCC5)c(Cl)c3)cc2[nH]c1=O     UniProt:P09616          IC50          < 30 nM
 4  O=c1[nH]c2cc(Br)c(S(=O)(=O)Nc3ccc(C4CC4)cc3)cc2[nH]c1=O     UniProt:P09616          IC50   100 to 1000 nM
 5  Cc1ccc(-c2ccc(NS(=O)(=O)c3cc4[nH]c(=O)c(=O)[nH]c4cc3C)cc2Cl)s1     UniProt:P09616          IC50     30 to 100 nM
 6  CCCc1ccc(NS(=O)(=O)c2cc3[nH]c(=O)c(=O)[nH]c3cc2C(C)C)cc1     UniProt:P09616          IC50   100 to 1000 nM
 7  Cc1ccc(-c2ccc(NS(=O)(=O)c3cc4[nH]c(=O)c(=O)[nH]c4cc3C)cc2Cl)cc1     UniProt:P09616          IC50     30 to 100 nM
 8  O=c1[nH]c2cc(F)c(S(=O)(=O)Nc3ccc(-c4cccnc4)c(Cl)c3)cc2[nH]c1=O     UniProt:P09616          IC50   100 to 1000 nM
 9  O=c1[nH]c2cc(F)c(S(=O)(=O)Nc3ccc(Br)c(Cl)c3)cc2[nH]c1=O     UniProt:P09616          IC50   100 to 1000 nM
10  O=c1[nH]c2cc(Cl)c(S(=O)(=O)Nc3ccc(OC(F)(F)F)cc3)cc2[nH]c1=O     UniProt:P09616          IC50     30 to 100 nM
11  CC(C)c1cc2[nH]c(=O)c(=O)[nH]c2cc1S(=O)(=O)Nc1ccc(C2CC2)cc1     UniProt:P09616          IC50   100 to 1000 nM
12  O=c1[nH]c2cc(F)c(S(=O)(=O)Nc3ccc(-c4ccccc4)c(Cl)c3)cc2[nH]c1=O     UniProt:P09616          IC50     30 to 100 nM
13  Cc1cc2[nH]c(=O)c(=O)[nH]c2cc1S(=O)(=O)Nc1ccc(N2CCOCC2)cc1     UniProt:P09616          IC50  1000 to 3500 nM
14  CC(C)c1cc2[nH]c(=O)c(=O)[nH]c2cc1S(=O)(=O)Nc1ccc(OC(F)(F)F)cc1     UniProt:P09616          IC50          < 30 nM
15  Cc1cc2[nH]c(=O)c(=O)[nH]c2cc1S(=O)(=O)Nc1ccc(-c2ccc(F)c(Cl)c2)c(Cl)c1     UniProt:P09616          IC50          < 30 nM
16  O=c1[nH]c2cc(Cl)c(S(=O)(=O)Nc3ccc(-c4ccncc4)c(Cl)c3)cc2[nH]c1=O     UniProt:P09616          IC50   100 to 1000 nM
